protocol: physchem
condition_details: octan-1-ol/water, pH 7.4, LogD7.4
# binarize logD: threshold 2 inclusive, high side Fulfilled, low side Not fulfilled

{"columns": ["compound", "group"],
 "data": [
  ["C[C@H](NC(=O)c1cccc2c1N(Cc1ccc(Cl)cc1)CC2)c1ccc(C(=O)O)cc1", "Not fulfilled"],
  ["Oc1ccc(-c2cnc3ccccc3n2)cc1", "Fulfilled"],
  ["Cc1ncc(-c2nc(Nc3ccc(C(=O)N4CCN(C)CC4)cc3)ncc2F)n1C(C)C", "Fulfilled"],
  ["CC(C)Cn1c(=O)n(C)c(=O)c2c(C(=O)N3CCCC3)c(Cc3ccccc3C(F)(F)F)sc21", "Fulfilled"],
  ["CC(c1ccccc1)N1Cc2ccccc2C1=O (stereo not given)", "Fulfilled"],
  ["CCCc1nc2c(C)cc(-c3nc4ccccc4n3C)cc2n1Cc1ccc(-c2ccccc2C(=O)O)cc1", "Fulfilled"],
  ["C[C@H]1CCCN1CCc1cc2cc(-c3ccc(C#N)cc3)ccc2o1", "Fulfilled"],
  ["Nc1c(C(=O)c2cccc(OC[C@@H](O)CO)c2)cnn1-c1ccc(F)cc1", "Not fulfilled"],
  ["COCCOc1nc(N)c2[nH]c(=O)n(Cc3cccc(CC(=O)OC)c3)c2n1", "Not fulfilled"],
  ["CCOc1cc2nccc(Oc3cnc(CC(=O)Nc4n[nH]c(CC)c4C)c(OC)c3)c2cc1OC", "Fulfilled"],
  ["O=C(N[C@@H](Cc1ccc(N2CCN(c3ccccc3)CC2)cc1)C(=O)O)c1c(Cl)cccc1Cl", "Not fulfilled"],
  ["COc1cccc([C@H](O)C2CCN(CCc3ccc(F)cc3)CC2)c1OC", "Not fulfilled"],
  ["Nc1cccc(C(=O)NCC23CC4CC(CC(C4)C2)C3)c1Cl", "Fulfilled"],
  ["CC(C)C(NC(=O)Cn1c(-c2cccs2)ncc(N)c1=O)C(=O)C(F)(F)F (stereo not given)", "Not fulfilled"],
  ["COc1cccc2[nH]ncc12", "Fulfilled"],
  ["CC[C@H](NC(=O)c1c([S+](C)[O-])c(-c2ccccc2)nc2ccccc12)c1ccccc1 (stereo not given in full)", "Fulfilled"],
  ["O=C(NC[C@@H](O)CN1CCC(Oc2ccc(Cl)c(Cl)c2)CC1)c1c[nH]c2ccccc12", "Fulfilled"],
  ["C[C@H](Nc1ncc(F)c(Nc2cc(C3CC3)[nH]n2)n1)c1ncc(F)cn1", "Fulfilled"],
  ["CCC(c1nc2ccoc2c(=O)n1Cc1ccccc1)N(CCCN)C(=O)c1ccc(C)cc1 (stereo not given)", "Not fulfilled"],
  ["Cc1nc2ccc(NC(=O)CCNC(N)=O)cc2s1", "Not fulfilled"],
  ["CNc1cccc(CCOc2ccc(C[C@H](NC(=O)c3c(F)cccc3Cl)C(=O)O)cc2)n1", "Not fulfilled"],
  ["CCN(C(=O)Cc1ccc(S(=O)(=O)N(C)C)cc1)C1CCN(CCC(c2ccccc2)c2ccccc2)CC1", "Fulfilled"],
  ["CN1CCN(CC(=O)Nc2c(C#N)cnn2-c2ccccc2)CC1", "Not fulfilled"],
  ["CCCCNc1nc(N)c2[nH]c(=O)n(Cc3ccc(OCCN(C)C)nc3)c2n1", "Not fulfilled"],
  ["CN[C@@H](C)C(=O)N[C@H](C(=O)N(C)[C@H]1CCCN(CCc2ccccc2)C1)C1CCCCC1", "Fulfilled"],
  ["COc1cc2ncnc(NCc3cccc(C)c3)c2cc1OC", "Fulfilled"],
  ["CNC(=O)c1ccc(-c2cc(C(=O)N[C@H]3CCCNC3)c(NC(N)=O)s2)cc1", "Not fulfilled"],
  ["Cc1nc(C(=O)N2CCOC3(CCN(Cc4ccc(Cl)cc4)CC3)C2)cs1", "Fulfilled"],
  ["O=C(CC1CCCCCC1)Nc1cccc2c(=O)n([C@H]3CCNC3)ccc12", "Not fulfilled"],
  ["CCC(c1nc2ccsc2c(=O)n1Cc1ccccc1)N(CC1CCNCC1)C(=O)c1ccc(C)cc1 (stereo not given)", "Not fulfilled"],
  ["O=c1ccoc2cc(OCc3ccccc3)ccc12", "Fulfilled"],
  ["O=c1cc(N2CCOCC2)nc2c3ccccc3ccn12", "Fulfilled"],
  ["CC(C)C(NC(=O)Cn1c(-c2ccc(F)cc2)ncc(NC(=O)OCc2ccccc2)c1=O)C(=O)C(F)(F)F (stereo not given)", "Fulfilled"],
  ["CS(=O)(=O)c1ccc(-c2nnc(/C=C/c3nnc(-c4ccc(C#N)cc4)o3)n2-c2ccccc2Cl)nc1", "Fulfilled"],
  ["CCOc1ccc2oc(C(=O)NC(CCSC)c3nc4cnccc4[nH]3)c(C)c2c1 (stereo not given)", "Fulfilled"],
  ["CN(C)CCCn1c2c(c3ccccc31)CCCCCC2", "Fulfilled"],
  ["O=C(Nc1ccc(N2CCNCC2)cc1)c1ccc(-c2ccc(Cl)cc2)o1", "Fulfilled"],
  ["CC1(C)Oc2ncnc(N)c2N=C1c1ccc([C@H]2CC[C@H](CC(=O)O)CC2)cc1", "Not fulfilled"]
]}

###

Recorded measurements of fraction unbound at 5 h, one per entry
protocol: in vitro
condition_details: human, plasma, PPB
reported_property: fraction unbound at 5 h

{"columns": ["item_smiles", "reported_property", "val"],
 "data": [
  ["COc1ccc(CCO[C@@H]2CCCC[C@H]2N2CC[C@@H](O)C2)cc1OC", "fraction unbound at 5 h", 0.629],
  ["O=C(O)[C@@H](Cc1ccccc1)N1CCC(CN2CCC(Oc3ccc(Cl)c(Cl)c3)CC2)CC1", "fraction unbound at 5 h", 0.314],
  ["CS(=O)(=O)c1ccc2c(C(=O)NC[C@@H](O)CN3CCC(Oc4ccc(C#N)c(Cl)c4)CC3)c[nH]c(=O)c2c1", "fraction unbound at 5 h", 0.319],
  ["CN[C@@H](C)C(=O)N[C@H](C(=O)N1CC[C@H]2CCN(CCc3ccccc3)C[C@H]21)C1CCCCC1", "fraction unbound at 5 h", 0.0568]
]}

###

protocol: in vitro
condition_details: hepatocytes

{"columns": ["item_smiles", "hepatocyte CLint (µL/min/1e6 cells)"],
 "data": [
  ["O=c1c2ccccc2[nH]n1Cc1c[nH]c2ccccc12", 4.37],
  ["CCC(CC)NC(=O)c1c(C)nn(-c2ccccc2)c1NS(=O)(=O)c1ccc(C)cc1", 13.5],
  ["Cc1cn([C@H]2CCCN([C@H](C)c3ccc(C(=O)O)c(Oc4cccc(Cl)c4)c3)C2)c(=O)[nH]c1=O", 3.39],
  ["O=C([C@@H]1CCCN1)N1CCN(c2nc(NCc3ccc(Cl)cc3Cl)c3cccnc3n2)CC1", 6],
  ["C[C@H](CO)Nc1nc(SCc2ccccc2F)nc2nc(N)sc12", 19]
]}

###

protocol: physchem
condition_details: octan-1-ol/water, pH 7.4, LogD7.4

{"columns": ["item_smiles", "logD"],
 "data": [
  ["Cc1cn([C@H]2CCCN([C@H](C)c3ccc(C(=O)O)c(Oc4cccc(Cl)c4)c3)C2)c(=O)[nH]c1=O", -0.3],
  ["CS(=O)(=O)c1ccc(C(=O)NC[C@@H](O)CN2CCC(Oc3ccc(Cl)c(Cl)c3)CC2)s1", 2.86],
  ["CCCCNc1ccc(C(=O)OCCN(C)C)cc1", 2.11],
  ["Cc1nc2c(C#N)cnn2c(O)c1Cc1ccccc1", 0.68],
  ["CO[C@H]1CN(CCn2c(=O)ccc3ccc(C#N)cc32)CC[C@H]1NCc1cc2c(cn1)OCCO2", 0.63]
]}

###

protocol: in vitro
condition_details: human, plasma

{"columns": ["molecule", "fraction unbound at 5 h"],
 "data": [
  ["O=C1COc2ccc(CNC3CCN(CCN4C(=O)COc5ccc(Cl)cc54)CC3)nc2N1", 0.072],
  ["CC(NC(=O)c1cc(O)nc2ccccc12)c1ccccc1 (stereo unspecified)", 0.36],
  ["C[C@](N)(Cc1ccccc1)c1ccccc1", 0.179],
  ["CN(C)CCCN1c2ccccc2CCc2ccccc21 [IMIPRAMINE]", 0.121],
  ["CC(C)NC[C@@H](O)COc1cccc2ccccc12 [DEXPROPRANOLOL]", 0.176],
  ["Cc1c(OCC(F)(F)F)ccnc1C[S+]([O-])c1nc2ccccc2[nH]1 (stereo unspecified) [LANSOPRAZOLE]", 0.016]
]}

###

protocol: physchem
condition_details: octan-1-ol/water, pH 7.4, LogD7.4
Recorded measurements of logD, one per entry
reported_property: logD

{"columns": ["item_smiles", "reported_property", "val"],
 "data": [
  ["CC(C)Oc1cc(OCCc2cccnc2)cc(C(=O)Nc2ccc(C(=O)O)cn2)c1", "logD", 0.81],
  ["c1csc(Cn2nnnc2CN2CCN(c3nc4ccccc4s3)CC2)c1", "logD", 3.65],
  ["Cc1cc(Oc2ccnc(Nc3ccc(S(N)(=O)=O)cc3)c2)c(-c2ccccn2)nc1C", "logD", 2.34],
  ["CC(=O)Nc1ccc2[nH]cc(-c3cc(NC4CC4)n4ncc(C#N)c4n3)c2c1", "logD", 2.65],
  ["CCCSc1ncccc1C(=O)N[C@@H]1[C@@H]2CC3C[C@H]1C[C@@](O)(C3)C2", "logD", 2.27]
]}

Data provenance: ChEMBL document CHEMBL3301361
